B1: SPDEF (parent)
chain: YPEDSSWAAKAPGASSREEPPEEP

variants of: B1; assay: protein stability index of a GFP-peptide fusion (GPS, HEK-293T) (PSI 1-6); higher = more stable; settings: c terminus: a fixed tail appended;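 also: lentivirally expressed fusions sorted by FACS into six bins by GFP to DsRed ratio, PSI derived from sequencing read proportions per bin multiplied by bin number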
Reported protein stability index by item:
Kindly provide the number alone.

Sample answers from the record:
# Mutation key, Quantity kind, Result value
data = [
    ("P2G", "protein stability index", 3.9),
    ("E19M", "protein stability index", 4.07),
    ("P12A", "protein stability index", 4.12),
    ("K10Y", "protein stability index", 1.79),
]

Prompt line: Retrieve protein stability index measured for A14T and print it.
Response line: 4.03

Prompt line: Find the measured protein stability index of S5K and report it.
Response line: 4.49

Prompt line: In one line, give reported protein stability index of the entry W7Y .
Response line: 5.92

Prompt line: Give the reported protein stability index for this variant. E23A
Response line: 4.06

Prompt line: Quickly give me recorded protein stability index for S16W
Response line: 3.71
